# Target Of Assay: T1, CD3 epsilon homodimer protein (UniProt P07766 23-126)
# T1 construct: also called CD3 (CD3 epsilon)
# T1 sequence (P07766 23-126): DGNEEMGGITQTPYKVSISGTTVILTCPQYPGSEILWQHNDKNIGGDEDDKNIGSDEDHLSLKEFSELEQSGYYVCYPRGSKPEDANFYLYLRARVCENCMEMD
# Assay Method Text: SPR, antibody over immobilised CD3e homodimer;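 further: SPR at 25 °C with CD3 epsilon homodimer amine-coupled to a CM4 sensor chip and antibody flowed over as analyte in HBS-EP+ running buffer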
Readout Kind: KD ratio to GLS3000
Lab note: record just the number, no unit beside it.

Solved entries (count: 2):
• CE115HA000/GLS3000 L27bE (antibody, IgG1, name in Kabat numbering, V domains shown, one-arm IgG1) VH: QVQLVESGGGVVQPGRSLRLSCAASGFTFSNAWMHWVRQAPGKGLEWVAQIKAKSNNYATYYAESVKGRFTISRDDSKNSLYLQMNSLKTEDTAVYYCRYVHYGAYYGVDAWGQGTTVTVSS VL: DIVMTQSPLSLPVTPGEPASISCRSSQSEVHSNRNTYLHWYQQKPGQAPRLLIYKVSNRFSGVPDRFSGSGSGTDFTLKISRVEAEDVGVYYCGQGTQVPYTFGQGTKLEIK = 28.8
• CE115HA000/GLS3000 K50R (antibody, IgG1, name in Kabat numbering, V domains shown, one-arm IgG1) VH: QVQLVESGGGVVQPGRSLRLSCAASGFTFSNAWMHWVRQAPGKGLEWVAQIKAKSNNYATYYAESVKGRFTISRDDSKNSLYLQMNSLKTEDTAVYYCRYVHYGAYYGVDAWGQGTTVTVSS VL: DIVMTQSPLSLPVTPGEPASISCRSSQSLVHSNRNTYLHWYQQKPGQAPRLLIYRVSNRFSGVPDRFSGSGSGTDFTLKISRVEAEDVGVYYCGQGTQVPYTFGQGTKLEIK = 1.83

With those in mind, consider the next binder.
Form field: reported KD ratio to GLS3000 of CE115HA000/GLS3000 S56L (antibody, IgG1, name in Kabat numbering, V domains shown, one-arm IgG1) VH: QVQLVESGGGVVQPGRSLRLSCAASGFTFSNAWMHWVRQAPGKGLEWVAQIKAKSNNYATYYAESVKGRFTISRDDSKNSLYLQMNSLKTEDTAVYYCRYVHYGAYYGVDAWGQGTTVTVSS VL: DIVMTQSPLSLPVTPGEPASISCRSSQSLVHSNRNTYLHWYQQKPGQAPRLLIYKVSNRFLGVPDRFSGSGSGTDFTLKISRVEAEDVGVYYCGQGTQVPYTFGQGTKLEIK 1.03
